biological target: POU domain, class 5, transcription factor 1 (Homo sapiens); assay: Activation of human Oct3/4 in HEK293 cells transfected with firefly luciferase gene assessed as relative luciferase activity after 72 hrs by luminometer plate reader relative to DMSO control; assay type: cell-based
reported_metric: RLU

Example cases with answers are listed next.
N#Cc1ccc(OCc2ccc([N+](=O)[O-])cc2)cc1: 2.65
N#CCc1ccc(OCc2ccc(C#N)cc2)cc1: 1.79
N#Cc1ccc(OCc2ccc(OC(F)(F)F)cc2)cc1: 3.4
COc1ccc(COc2ccc(CC#N)cc2)cc1: 3.85
COc1ccc(COc2ccc(C#N)cc2)cc1: 3

For each listed entry, give its RLU.
1. N#CCc1ccc(OCc2ccc([N+](=O)[O-])cc2)cc1
2. N#CCc1ccc(OCc2ccc(-c3ccccc3)cc2)cc1
3. N#Cc1ccc(OCc2ccc(F)cc2)cc1
4. Cc1ccc(COc2ccc(CC#N)cc2)cc1

Response:
[4.02, 0.84, 5.83, 2]

For each listed entry, give its RLU.
1. N#CCc1ccc(OCc2ccc(F)cc2)cc1
2. N#CCc1ccc(OCc2ccc(OC(F)(F)F)cc2)cc1

Response:
1. 6.58
2. 4.9
